Every entry's value here was drawn from patent US10940139B2.

Readings of inhibition at 20 µM for the listed compounds
# TGT: KRas G12D/Q61H double mutant (Homo sapiens (Human), UniProt P01116, G12D/Q61H)
# Sequence (P01116-2 other isoform, or with tags, fused parts or gaps G12D/Q61H): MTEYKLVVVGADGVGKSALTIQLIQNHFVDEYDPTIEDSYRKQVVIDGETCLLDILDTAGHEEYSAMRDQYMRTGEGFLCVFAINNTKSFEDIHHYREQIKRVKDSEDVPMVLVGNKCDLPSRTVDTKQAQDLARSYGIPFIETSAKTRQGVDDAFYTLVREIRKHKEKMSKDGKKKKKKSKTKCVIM
# ASSAY_METHOD_TEXT: Ras GTP binding domain inhibition assay (labeled GTP)
# CONDITIONS: 20 μM compound; read-out: % Inhibition at 20 μM KRas G12D Q61H

| COMPOUND | inhibition at 20 µM |
| --- | --- |
| Nc1nc(-c2ccccn2)nc2c(Br)csc12 [drawing 2892] | 25 to 50% |
| Oc1nc(-c2ccccn2)nc2c(Br)csc12 [drawing 2673] | 51 to 75% |
| c1ccc(-c2csc3nc(-c4ccccn4)nc(NCc4ccccn4)c23)cc1 | 25 to 50% |
| Nc1nc(O)c2scc(-c3ccccc3Cl)c2n1 [drawing 2693] | 1 to 25% |
| Clc1csc2nc(-c3ccccn3)nc(N3CCOCC3)c12 [drawing 2707] | 1 to 25% |
| O=C(c1csc2c(O)nc(-c3ccccn3)nc12)N1CCN(Cc2ccc(O)c(Cl)c2)CC1 [drawing 2765] | 25 to 50% |
| C=CCNC(=O)CN1CCOC(c2nc(-c3ccccc3)cs2)C1 (stereo not shown) | 1 to 25% |
| Cc1ccccc1CC(=O)N(CC(F)(F)F)C1CCCOC1 (stereo not shown) | 1 to 25% |

Task: Return value of inhibition at 20 µM for input O=C(c1csc2c(O)nc(-c3ccccn3)nc12)N1CCNC(c2cccc(F)c2)C1 (stereo not shown) [drawing 2737] , no commentary.
Output: 25 to 50%

Task: Return value of inhibition at 20 µM for input COc1cc(OC)cc(N2CCN(C(=O)c3csc4c(O)nc(-c5ccccn5)nc34)CC2)c1 [drawing 2757] , no commentary.
Output: 0%

Task: Return value of inhibition at 20 µM for input `CN(Cc1ccccn1)Cc1nc2ccccc2n1C` , no commentary.
Output: 25 to 50%

Task: Return value of inhibition at 20 µM for input Oc1nc(-c2ccccn2)nc2c(-c3ccsc3)csc12 [drawing 2875] , no commentary.
Output: 25 to 50%

Task: Return value of inhibition at 20 µM for input O=C(c1cc2nc(-c3ccccn3)nc(O)c2s1)N1CCOC(c2ccccc2)C1 (stereo not shown) [drawing 2842] , no commentary.
Output: 51 to 75%

Task: Return value of inhibition at 20 µM for input COCCCCN(C)C(=O)c1csc2nc(-c3ccccn3)nc(N3CCOCC3)c12 [drawing 2790] , no commentary.
Output: 1 to 25%

Task: Return value of inhibition at 20 µM for input `CCOC(=O)c1sc(N(C2CC2)S(=O)(=O)c2ccc(OC)c(C)c2)nc1C` , no commentary.
Output: 1 to 25%

Task: Return value of inhibition at 20 µM for input CC(C)(C)c1ccc(-c2csc3c(O)nc(-c4ccccn4)nc23)cc1 [drawing 2847] , no commentary.
Output: 51 to 75%

Task: Return value of inhibition at 20 µM for input CC1CN(c2nc(-c3ccccn3)nc3c2CCC3)C(C)CN1C (stereo not shown) , no commentary.
Output: 25 to 50%

Task: Return value of inhibition at 20 µM for input Nc1nc(O)c2scc(C(=O)N3CCC(N4CCCC4=O)CC3)c2n1 [drawing 2663] , no commentary.
Output: 25 to 50%

Task: Return value of inhibition at 20 µM for input CC(C)(C(=O)Nc1ccnc(-c2ccccn2)n1)c1ccc(C#N)cc1 [drawing 2751] , no commentary.
Output: 1 to 25%

Task: Return value of inhibition at 20 µM for input COc1ccc(OCCSc2nnc(C(C)Oc3ccc(F)cc3)o2)cc1 (stereo not shown) , no commentary.
Output: 25 to 50%

Task: Return value of inhibition at 20 µM for input `CCc1cc(NNC(=O)c2ccc(C)s2)nc(-c2ccccn2)n1` , no commentary.
Output: 25 to 50%

Task: Return value of inhibition at 20 µM for input O=C(c1csc2c(O)nc(-c3ccccn3)nc12)N1CCC(c2cccc(O)c2)C1 (stereo not shown) [drawing 2840] , no commentary.
Output: 76 to 100%

Task: Return value of inhibition at 20 µM for input CCn1nc(C)cc1-c1csc2c(O)nc(-c3ccccn3)nc12 [drawing 2903] , no commentary.
Output: 51 to 75%

Task: Return value of inhibition at 20 µM for input CC(C(=O)Nc1ccnc(-c2ccccn2)n1)c1ccc(C#N)cc1 (stereo not shown) [drawing 2794] , no commentary.
Output: 1 to 25%

Task: Return value of inhibition at 20 µM for input CC(C)CN1CC(C(=O)Nc2nc(-c3ccccn3)cs2)CC1=O (stereo not shown) , no commentary.
Output: 1 to 25%

Task: Return value of inhibition at 20 µM for input Oc1nc(-c2ccccn2)nc2sc3c(c12)CCCNC3 [drawing 2852] , no commentary.
Output: 25 to 50%

Task: Return value of inhibition at 20 µM for input CN(C)C(=O)CCN1CCOC(c2nc(-c3ccccc3)cs2)C1 (stereo not shown) , no commentary.
Output: 1 to 25%

Task: Return value of inhibition at 20 µM for input `CSc1nnc(CN(Cc2ccccc2)Cc2ccccc2)s1` , no commentary.
Output: 25 to 50%

Task: Return value of inhibition at 20 µM for input Cn1cc(C2CN(C(=O)c3csc4c(O)nc(-c5ccccn5)nc34)CCN2)cn1 (stereo not shown) [drawing 2777] , no commentary.
Output: 1 to 25%
